Literature-derived IC50 for Bcl-2-like protein 1 (Homo sapiens) follows.

compound=CCCCN(CCCC)C(=O)c1nn(-c2ccc(C(=O)NS(=O)(=O)c3ccc4ccc(C(=O)N(C)C)cc4c3)cc2C(=O)N2CCc3ccccc3C2)c(C)c1Cl quantity=IC50 observed_result="80 nM"

What value of measured IC50 is listed for `CC1(C)CN(CC2CCN(c3ccc(C(=O)NS(=O)(=O)c4ccc(NCC5CCOCC5)c([N+](=O)[O-])c4)c(Oc4cnc5[nH]ccc5c4)c3)CC2)Cc2ccccc21` ?
> 4000 nM

Then `NC(=O)[C@H](Cc1ccccc1)NS(=O)(=O)c1ccc2c(c1)CN(C(=O)c1cc(S(=O)(=O)N3CCc4ccccc4C3)c(O)c(O)c1O)CC2` ?
> 1000 nM

Then `Oc1c(CCCc2ccccc2)cc(Cc2ccc(Oc3ccccc3)cc2)c(O)c1O` ?
> 1000 nM

Then CC1(O)CC[C@H](CN2CCN(c3ccc(C(=O)NS(=O)(=O)c4ccc(NCC5CCOCC5)c([N+](=O)[O-])c4)c(Oc4cnc5[nH]ccc5c4)c3)CC2)[C@@H](c2ccc(Cl)cc2)C1 (stereo partly drawn) ?
≤ 2000 nM

Then `CCCN(CCC)c1ncc(Cl)c(-c2ccc(C(=O)NS(=O)(=O)c3ccc4cccc(Cl)c4c3)cc2C(=O)N2Cc3ccccc3C[C@H]2CN)n1` ?
20 nM

* * *

Literature-derived IC50 for Bcl-2-like protein 1 (Homo sapiens) follows.

Here's what some known entries look like.
compound=O=C(c1cc(S(=O)(=O)N2CCc3ccccc3C2)c(O)c(O)c1O)N1CCc2ccc(S(=O)(=O)N3CCC(Cc4ccccc4)CC3)cc2C1 quantity=IC50 observed_result="> 1000 nM"
compound=CC1=C(C2=C(C)C(=O)c3c(cc(O)c(O)c3Cc3ccc(Cl)cc3)C2=O)C(=O)c2cc(O)c(O)c(Cc3ccc(Cl)cc3)c2C1=O quantity=IC50 observed_result="160 to 630 nM"
compound=O=C(c1ccc(Oc2ccc(S(=O)(=O)N3CCCCC3)c(Cl)c2)cc1)c1cc(C(=O)c2nc3ccccc3s2)c(O)c(O)c1O quantity=IC50 observed_result="> 1000 nM"

What value of measured IC50 is listed for `CCCCN(CCCC)C(=O)c1nn(-c2ccc(C(=O)NS(=O)(=O)c3ccc4c(c3)CCN4Cc3ccc(Cl)c(Cl)c3)cc2C(=O)N2Cc3ccccc3C[C@H]2CO)c(C)c1Cl` ?
40 nM

Then `O=C(c1cc(S(=O)(=O)N2CCc3ccccc3C2)c(O)c(O)c1O)N1CCc2ccc(S(=O)(=O)NCCc3cccc(Oc4ccccc4)c3)cc2C1` ?
> 1000 nM

Then `CC(C)C(=O)N1Cc2ccc(F)cc2C[C@H]1CN1CCN(c2ccc(C(=O)NS(=O)(=O)c3ccc(NCC4CCOCC4)c([N+](=O)[O-])c3)c(Oc3cnc4[nH]ccc4c3)c2)CC1` ?
> 4000 nM

Then `O=C(NS(=O)(=O)c1ccc(NCC2CCOCC2)c([N+](=O)[O-])c1)c1ccc(N2CCN(C[C@H]3[C@H](c4ccc(Cl)cc4)[C@@H]4C=C[C@H]3C4)CC2)cc1Oc1cnc2[nH]ccc2c1` ?
> 4000 nM

Then `CCCCN(CCCC)C(=O)c1nn(-c2ccc(C(=O)NS(=O)(=O)c3ccc4ccccc4c3)cc2C(=O)N2CCc3ccc(C(=O)O)cc3C2)c(C)c1Cl` ?
3510 nM

Then `O=C(c1cc(S(=O)(=O)N2CCc3ccccc3C2)c(O)c(O)c1O)N1CCc2ccc(S(=O)(=O)NCC(c3ccccc3)c3ccccc3)cc2C1` ?
> 1000 nM

Then `CCCCN(Cc1ccc(-c2ccc(CC(=O)O)cc2)cc1)C(=O)c1nn(-c2ccc(C(=O)NS(=O)(=O)c3ccc4c(c3)CCN4Cc3ccc(Cl)c(Cl)c3)cc2C(=O)N2CCc3ccccc3C2)c(C)c1Cl` ?
80 nM

Then `CCCCN(CCCC)C(=O)c1nn(-c2ccc(C(=O)NS(=O)(=O)c3ccc4c(c3)c(I)cn4CC)cc2C(=O)N2CCc3ccccc3C2)c(C)c1Cl` ?
80 nM

* * *

Literature-derived IC50 for Bcl-2-like protein 1 (Homo sapiens) follows.

What value of measured IC50 is listed for `NC(=O)c1cccc(CN(C(=O)c2cc(-c3cc4c(cc3C(=O)N3Cc5ccccc5C[C@H]3CN3CCOCC3)OCO4)n3c2CCCC3)c2ccc(O)cc2)c1` ?
≤ 2 µM

Then `O=C(O)c1coc(N2CCc3cccc(C(=O)Nc4nc5ccccc5s4)c3C2)n1` ?
0.865 µM

Then `O=C(NS(=O)(=O)c1ccc(NCC2CCOCC2)c([N+](=O)[O-])c1)c1ccc(N2CCN(C[C@@H]3Cc4ccccc4CN3C(=O)C3CC3)CC2)cc1Oc1cnc2[nH]ccc2c1` ?
≤ 2 µM

Then `CN1C(=O)CC[C@H](CN2CCN(c3ccc(C(=O)NS(=O)(=O)c4ccc(NCC5CCOCC5)c([N+](=O)[O-])c4)c(Oc4cnc5[nH]ccc5c4)c3)CC2)[C@H]1c1ccc(Cl)cc1` ?
≤ 2 µM

Then `CCC(CC)CNS(=O)(=O)c1ccc2c(c1)CN(C(=O)c1cc(S(=O)(=O)N3CCc4ccccc4C3)c(O)c(O)c1O)CC2` ?
> 1 µM

Then `CCCCN(CCCC)C(=O)c1nn(-c2ccc(C(=O)NS(=O)(=O)c3ccc4ccc(C(=O)N5CCN(C)CC5)cc4c3)cc2C(=O)N2CCc3ccccc3C2)c(C)c1Cl` ?
0.04 µM
